The values you see were collected from patent EP0406111A1.

Listing of entries alongside the reported IC50.
target: complexe de recapture de la dopamine (Rattus norvegicus, UniProt P23977); construct: expériences de compétition sur les membranes de striatum préparées comme ci-dessus; from tissue; host or cells: rat striatal membranes; test: biochemical; format: binding; conditions: rat striatal membranes, 0,2 nM (3H)BTCP, 90 min at 4°C; read-out: [3H] BTCP IC50
Sequence (P23977 whole entry, one chain of several): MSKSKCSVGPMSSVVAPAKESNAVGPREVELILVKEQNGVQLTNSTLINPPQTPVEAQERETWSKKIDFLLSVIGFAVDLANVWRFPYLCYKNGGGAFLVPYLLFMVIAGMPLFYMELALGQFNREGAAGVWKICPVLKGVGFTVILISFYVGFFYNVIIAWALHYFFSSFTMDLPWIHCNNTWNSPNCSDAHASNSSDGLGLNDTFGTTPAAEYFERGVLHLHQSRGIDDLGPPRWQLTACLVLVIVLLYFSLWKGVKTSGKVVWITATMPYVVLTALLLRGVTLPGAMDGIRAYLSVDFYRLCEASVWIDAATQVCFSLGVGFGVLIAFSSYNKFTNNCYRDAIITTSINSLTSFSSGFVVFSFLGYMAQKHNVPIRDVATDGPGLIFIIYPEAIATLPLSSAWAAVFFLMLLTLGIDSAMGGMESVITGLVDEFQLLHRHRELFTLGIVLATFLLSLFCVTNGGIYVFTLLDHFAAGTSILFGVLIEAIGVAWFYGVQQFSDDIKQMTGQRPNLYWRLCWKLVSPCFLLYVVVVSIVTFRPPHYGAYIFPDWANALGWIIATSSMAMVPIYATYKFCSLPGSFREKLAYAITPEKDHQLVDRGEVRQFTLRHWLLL
// return numeric value only (unit: nM, not printed)

Recorded IC50, per entry:
{"columns": ["compound", "value measured"],
 "data": [
  ["c1ccc2oc(C3(N4CCCCC4)CCCCC3)cc2c1", 19.1],
  ["CC1CC(C)CN([C@]2(c3cc4ccccc4s3)CC[C@H](C)CC2)C1 (relative stereo)", 635],
  ["C[C@H]1CC[C@@](c2cc3ccccc3s2)(N2CCCCC2)CC1", 6.9],
  ["CC1CC(C)CN(C2(c3cc4ccccc4s3)CCCCC2)C1 (stereo not drawn)", 12.7],
  ["CC1CCN(C2(c3cc4ccccc4s3)CCCCC2)CC1", 30.8],
  ["c1ccc2c(C3(N4CCCCC4)CCCCC3)cccc2c1", 2560]
]}

# return recorded IC50 for entry C[C@H]1CCC[C@@](c2cc3ccccc3s2)(N2CCCCC2)C1 (relative stereo) 369

# return recorded IC50 for entry ICC1CCCN(C2(c3cc4ccccc4s3)CCCCC2)C1 (stereo not drawn) 26

# return recorded IC50 for entry `c1ccc2cc(C3(N4CCCCC4)CCCCC3)ccc2c1` 14.8

---

target: complexe de recapture de la dopamine (Rattus norvegicus); construct: expériences de compétition sur les membranes de striatum préparées comme ci-dessus; from tissue; host or cells: rat striatal membranes; assay: biochemical; type: binding; conditions: rat striatal membranes, 0,2 nM (3H)BTCP, 90 min at 4°C; read-out: [3H] BTCP IC50
assay endpoint: pIC50
Bear in mind: pIC50 is minus log10 of a mol/L concentration; give just that figure.

Recorded pIC50, per entry:
{"columns": ["compound", "assay endpoint", "value measured"],
 "data": [
  ["CC1CC(C)CN(C2(c3cc4ccccc4o3)CCCC(C)C2)C1 (centres unmarked)", "pIC50", 5.66],
  ["CCCN(CCC)C1(c2cc3ccccc3s2)CCCCC1", "pIC50", 8.14],
  ["CC1CCCN(C2(c3cc4ccccc4s3)CCCCC2)C1 (centres unmarked)", "pIC50", 7.88],
  ["c1ccc2sc(C3(N4CCC5(CC4)OCCO5)CCCCC3)cc2c1", "pIC50", 7.45],
  ["C[C@H]1CCCC[C@@]1(c1cc2ccccc2s1)N1CCCCC1 (relative stereo)", "pIC50", 7.83]
]}

# return recorded pIC50 for entry `C[C@H]1CC[C@](c2cc3ccccc3s2)(N2CCCCC2)CC1` 7.68

# return recorded pIC50 for entry `OC1CCN(C2(c3cc4ccccc4s3)CCCCC2)CC1` 7.80

# return recorded pIC50 for entry CC(=O)OCC1CCCN(C2(c3cc4ccccc4s3)CCCCC2)C1 (centres unmarked) 7.62

---

molecular target: complexe de recapture de la dopamine (Rattus norvegicus); construct: expériences de compétition sur les membranes de striatum préparées comme ci-dessus; from tissue; host or cells: rat striatal membranes; test: biochemical; type: binding
assay endpoint: IC50 (nM)
// return numeric value only (unit: nM, not printed)

Under complexe de recapture de la dopamine (Rattus norvegicus): report IC50 of `CCN(CC)C1(c2cc3ccccc3s2)CCCCC1` . 16.7
